Tested on: Neuregulin-1 EGF-like domain
assay.explanation: binders of neuregulin-1 EGF-like domain, primary screen, biochemical, small-molecule microarray, 635 nm fluorescence (AID 1081);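 note: binding of the protein to compounds printed on small-molecule microarray slides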
experimental.conditions: small-molecule microarray binding, higher = more signal
measure: composite z-score
Enter the number alone.

Before answering, review these 4 worked examples.
CC(CCC(=O)OC[C@H]1O[C@H](C#Cc2ccccc2)C=C[C@@H]1Oc1ccc(C)cc1)=NOC[C@@H](O)[C@H]1O[C@@H]2OC(C)(C)O[C@@H]2[C@H]1O	-0.0458
COc1ccc([Si](C)(C)[C@H]2[C@H](CCO)O[C@@]3(C(=O)N(Cc4cccc(NC(=O)[C@H](C)O)c4)c4ccccc43)[C@@H]2C)cc1	1.22
CC(CCN1CCCCc2nc(C)c(C)cc21)=NOC(C)CN1CCCc2nc(C)c(C)cc21 (centres undefined)	1.06
CC(C)=C1C(=O)C(c2ccccc2)=C2CN3C(=O)N(CCc4ccccc4)C(=O)[C@]3(Cc3ccc(F)cc3)[C@H]21	0.134

Query: composite z-score; subject: `NCCCCCNC(=O)[C@@H]1C[C@@H]2C(=O)N3CCC[C@H]3C(=O)N2[C@@H]1c1cccc(OCCO)c1`
1.26

Query: composite z-score; subject: `COc1ccc(CCNC(=O)[C@@H]2c3ccccc3C(=O)N(c3ccc(C)cn3)[C@H]2c2ccc(CO)cc2)cc1`
1.2

Query: composite z-score; subject: `C=CCNC(=O)[C@H]1[C@@H]2C(=O)O[C@@H](c3ccccc3)[C@@H](c3ccccc3)N2[C@@H](c2ccc(O)cc2)[C@]12C(=O)N(C(=O)OCCOC)c1ccc(C#CC3=CCCCC3)cc12`
1.06

Query: composite z-score; subject: CCOC(=O)[C@H](CC(C)C)NC(=O)CCC1CC(OC(=O)NCCc2ccc(F)cc2)CC2(CCCC(COC(=O)NCc3ccccc3)O2)O1 (some centres undefined)
1.28

Query: composite z-score; subject: CCCCCN1CC=CC23O[C@@H]4C=CCOC(=O)[C@@H]4[C@H]2C(=O)N(CCCCCCO)[C@@H]3C1=O (some centres undefined)
0.975

Query: composite z-score; subject: `C[C@@H](c1ccccc1)N1C(=O)[C@H]2[C@H]3[C@H](O)[C@H](O)CC(=NNC(=O)OCc4ccccc4)[C@H]3CC[C@H]2C1=O`
-0.451

Query: composite z-score; subject: `C[C@H](c1ccccc1)N1C(=O)[C@H]2[C@@H]3C(=CC[C@H]2C1=O)C(=O)[C@H]1O[C@H]1[C@H]3O`
-0.133

Query: composite z-score; subject: `COc1ccc(O[C@H]2C=C[C@@H](c3ccccc3)O[C@@H]2COC(=O)CCC(C)=NO[C@@H](C)c2cc(-c3c(C)cc(C)cc3C)no2)cc1`
-1.08

Query: composite z-score; subject: `CO[C@H]1O[C@H](CO)[C@@H](OC(=O)Nc2ccc(C#N)cc2)[C@H](OC(=O)c2cc3ccccc3[nH]2)[C@H]1OC(=O)c1cc2ccccc2[nH]1`
1.24

Query: composite z-score; subject: `CCc1cc2c(nc1CC)CCN(CCC(C)=NOC[C@@H](O)[C@H]1O[C@@H]3OC(C)(C)O[C@@H]3[C@H]1O)C2`
0.335

Query: composite z-score; subject: `COc1ccc(COC(=O)NN=C2C[C@@H](O)[C@@H](O)[C@@H]3[C@@H]4C(=O)N(c5ccc(F)cc5F)C(=O)[C@@H]4CC[C@@H]23)cc1`
-1.13

Query: composite z-score; subject: CCOC(=O)[C@H](Cc1ccccc1)NC(=O)CCC1CC(OC(=O)NCc2ccc3c(c2)OCO3)CC2(CCCC(COC(=O)NCC3CCCCC3)O2)O1 (some centres undefined)
1.04

Query: composite z-score; subject: `O=C1O[C@@H](c2ccccc2)[C@@H](c2ccccc2)N2[C@@H](c3ccc(OCCO)cc3)[C@]3(C(=O)Nc4ccc(C#CCCO)cc43)[C@@H](C(=O)N3CCCCCCC3)[C@H]12`
1.18

Query: composite z-score; subject: `CC[C@@H](c1ccccc1)n1c(=O)n2n(c1=O)[C@H]1[C@H](O)[C@@H]3O[C@@H]3C(=NOCC(C)C)[C@H]1CC2`
0.493

Query: composite z-score; subject: CC1CC/C=C\[C@H]2OC34C=CCN(Cn5nnc6ccccc65)C(=O)[C@H]3N(CCO)C(=O)[C@@H]4C2C(=O)O1 (some centres undefined)
1.43

Query: composite z-score; subject: `CN(C)CCCNC(=O)[C@@H]1c2ccccc2C(=O)N(Cc2ccccc2)[C@H]1c1ccc(CO)cc1`
0.571

Query: composite z-score; subject: CC(CCN1CCCCc2nc(C)c(C)cc21)=NOC(C)CN1CCCCc2nc(C)c(C)cc21 (centres undefined)
1.28

Query: composite z-score; subject: O=C1NC(=O)C2C1C=CC(C(O)Cc1ccccc1)N2Nc1ccccn1 (centres undefined)
0.934
